- study_system: Recombinant STAT6 protein (STAT6(W123-T658)) (Homo sapiens, UniProt P42226)
- Construct: Recombinant STAT6 protein (STAT6(W123-T658))
- test_name: STAT6 Fluorescence Polarization (FP) Assay
- run_parameters: STAT6(W123-T658) 250 nM, probe 5-FAM-ApYKPFQDLI-NH2 2 nM, 45-minute incubation
- Experimental: STAT6 Fluorescence Polarization (FP) Assay An FP assay was developed to determine IC50 values for test substances. […] Reaction components were mixed, and FP was measured after 45-minute incubation at room temperature using a Tecan Spark multimode plate reader. FP signal (mP) was plotted against the log concentration of the test substances and IC50 values were calculated by nonlinear regression analysis using GraphPad Prism software. […]
endpoint: IC50

# compound, endpoint, result
measured = [
    ("CC(=O)N1CC[C@H]2CC[C@@H](C(=O)N3CCC[C@@H](c4ccccc4)C3)N2C(=O)[C@@H](NC(=O)c2cc3cc(C(F)(F)P(=O)(O)O)ccc3[nH]2)C1 [Compound 107]", "IC50", "≤ 0.3 µM"),
    ("Cc1ccc2onc(C(=O)N3CC[C@H]4CC[C@@H](C(=O)N5C[C@H](c6ccn(C)c(=O)c6)CC56CC6)N4C(=O)[C@@H](NC(=O)c4ccc5ccc(C(F)(F)P(=O)(O)O)cc5c4)C3)c2c1 [Compound 382]", "IC50", "≤ 0.3 µM"),
    ("CC(=O)N1CC[C@H]2CC[C@@H](C(=O)N[C@H]3CN(S(C)(=O)=O)C[C@@H]3O)N2C(=O)[C@@H](NC(=O)c2cc3cc(C(F)(F)P(=O)(O)O)ccc3s2)C1 [Compound 6]", "IC50", "0.3 to 3 µM"),
    ("Cc1ccc2onc(C(=O)N3CC[C@H]4CC[C@@H](C(=O)N5C[C@@H](c6cc[nH]c(=O)c6)CC56CC6)N4C(=O)[C@@H](NC(=O)c4ccc5ccc(C(F)(F)P(=O)(O)O)cc5c4)C3)c2c1 [Compound 385]", "IC50", "≤ 0.3 µM"),
    ("CN(C(=O)[C@@H]1CC[C@@H]2CCN(C(=O)c3ccccc3)C[C@H](NC(=O)c3cc4cc(C(F)(F)P(=O)(O)O)ccc4[nH]3)C(=O)N21)c1ccccc1 [Compound 220]", "IC50", "0.3 to 3 µM"),
    ("CC(=O)N1CC[C@H]2CC[C@@H](C(=O)N(C)Cc3ccccc3)N2C(=O)[C@@H](NC(=O)c2cc3cc(C(F)(F)P(=O)(O)O)ccc3[nH]2)C1 [Compound 54]", "IC50", "0.3 to 3 µM"),
    ("O=C(N[C@H]1CN(C(=O)NCC23CCN(CC2)CC3)CC[C@H]2CC[C@@H](C(=O)N3CC(c4cccnc4)C3)N2C1=O)c1cc2cc(C(F)(F)P(=O)(O)O)ccc2s1 [Compound 401]", "IC50", "3 to 30 µM"),
    ("CC(=O)N1CC[C@H]2CC[C@@H](C(=O)N(C)c3ccccc3)N2C(=O)[C@@H](NC(=O)c2cc3cc(C(F)(F)P(=O)(O)O)cnc3s2)C1 [Compound 110]", "IC50", "3 to 30 µM"),
    ("N#C[C@H]1CN(C(=O)[C@@H]2CC[C@@H]3CN(C(c4ccccc4)c4ccccc4)CC[C@H](NC(=O)c4ccc5ccc(C(F)(F)P(=O)(O)O)cc5c4)C(=O)N32)C[C@@H]1c1ccccc1 (relative stereo) [Compound 209]", "IC50", "0.3 to 3 µM"),
    ("CCOc1ccc(N(C)C(=O)[C@@H]2CC[C@@H]3CCN(C(C)=O)C[C@H](NC(=O)c4cc5cc(C(F)(F)P(=O)(O)O)ccc5[nH]4)C(=O)N32)cc1 [Compound 101]", "IC50", "0.3 to 3 µM"),
    ("CC(=O)N1CC[C@H]2CC[C@@H](C(=O)N3CC[C@H](Cc4cccnc4)C3)N2C(=O)[C@@H](NC(=O)c2cc3cc(C(F)(F)P(=O)(O)O)ccc3s2)C1 (single isomer, unassigned) [Compound 65]", "IC50", "0.3 to 3 µM"),
    ("C[C@@H](C(=O)N1CC[C@H]2CC[C@@H](C(=O)N(C)c3ccccc3)N2C(=O)[C@@H](NC(=O)c2cc3cc(C(F)(F)P(=O)(O)O)ccc3[nH]2)C1)c1ccccc1 [Compound 217]", "IC50", "0.3 to 3 µM"),
    ("O=C(N[C@H]1CN(CC(F)F)CC[C@H]2CC[C@@H](C(=O)N3C[C@H](c4ccccc4)[C@@H](C(F)F)C3)N2C1=O)c1cc2cc(C(F)(F)P(=O)(O)O)ccc2s1 (relative stereo) [Compound 242]", "IC50", "≤ 0.3 µM"),
    ("CC(=O)N1CC[C@H]2CC[C@@H](C(=O)N3CCC(c4cccnc4)C3)N2C(=O)[C@@H](NC(=O)c2ccc3ccc(C(F)P(=O)(O)O)cc3c2)C1 (some centres unmarked) [Compound 355]", "IC50", "0.3 to 3 µM"),
    ("COc1cc(CN2CC[C@H]3CC[C@@H](C(=O)N4CC(c5cccnc5)C4)N3C(=O)[C@@H](NC(=O)c3cc4cc(C(F)(F)P(=O)(O)O)ccc4s3)C2)ccc1-n1cnc(C)c1 [Compound 275]", "IC50", "3 to 30 µM"),
    ("CC(=O)N1CC[C@H]2CC[C@@H](C(=O)Nc3ccc(-c4ccccc4)cc3CC(N)=O)N2C(=O)[C@@H](NC(=O)c2cc3cc(C(F)(F)P(=O)(O)O)ccc3s2)C1 [Compound 177]", "IC50", "0.3 to 3 µM"),
    ("CC(=O)N1CC[C@H]2CC[C@@H](C(=O)N3CCC4C3CN4c3ccccc3)N2C(=O)[C@@H](NC(=O)c2cc3cc(C(F)(F)P(=O)(O)O)ccc3s2)C1 (some centres unmarked) [Compound 11]", "IC50", "0.3 to 3 µM"),
    ("CC(=O)N1CC[C@H]2CC[C@@H](C(=O)N(C)c3ccc(Cl)cc3)N2C(=O)[C@@H](NC(=O)c2cc3cc(C(F)(F)P(=O)(O)O)ccc3s2)C1 [Compound 187]", "IC50", "0.3 to 3 µM"),
    ("CC(=O)N1CC[C@H](NC(=O)c2cc3cc(C(F)(F)P(=O)(O)O)ccc3s2)C(=O)N2[C@H](CC[C@H]2C(=O)N2CC(c3cccnc3)C2)C1 [Compound 40]", "IC50", "3 to 30 µM"),
    ("CC(=O)N1CC(NC(=O)[C@@H]2CC[C@@H]3CCN(C(C)=O)C[C@H](NC(=O)c4cc5cc(C(F)(F)P(=O)(O)O)ccc5[nH]4)C(=O)N32)C1 [Compound 24]", "IC50", "0.3 to 3 µM"),
]

* * *

- study_system: Recombinant STAT6 protein (STAT6(W123-T658)) (Homo sapiens, UniProt P42226)
- Construct: Recombinant STAT6 protein (STAT6(W123-T658))
- Sequence (P42226 123-658): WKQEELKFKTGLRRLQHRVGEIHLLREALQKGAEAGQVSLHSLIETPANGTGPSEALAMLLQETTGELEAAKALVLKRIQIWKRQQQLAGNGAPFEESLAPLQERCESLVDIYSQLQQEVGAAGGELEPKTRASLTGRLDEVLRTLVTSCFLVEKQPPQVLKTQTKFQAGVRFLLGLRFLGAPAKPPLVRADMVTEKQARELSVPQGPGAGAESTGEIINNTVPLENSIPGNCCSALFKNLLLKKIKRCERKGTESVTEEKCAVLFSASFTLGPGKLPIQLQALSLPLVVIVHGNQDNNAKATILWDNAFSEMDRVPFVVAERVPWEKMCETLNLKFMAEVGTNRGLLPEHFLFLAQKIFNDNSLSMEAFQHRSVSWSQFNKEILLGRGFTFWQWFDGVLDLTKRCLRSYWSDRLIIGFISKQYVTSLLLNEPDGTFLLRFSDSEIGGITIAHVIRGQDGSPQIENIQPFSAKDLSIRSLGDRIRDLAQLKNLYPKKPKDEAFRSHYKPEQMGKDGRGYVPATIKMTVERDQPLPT
- test_name: STAT6 Fluorescence Polarization (FP) Assay
- run_parameters: STAT6(W123-T658) 250 nM, probe 5-FAM-ApYKPFQDLI-NH2 2 nM, 45-minute incubation
- Protocol: STAT6 Fluorescence Polarization (FP) Assay An FP assay was developed to determine IC50 values for test substances. […] Reaction components were mixed, and FP was measured after 45-minute incubation at room temperature using a Tecan Spark multimode plate reader. FP signal (mP) was plotted against the log concentration of the test substances and IC50 values were calculated by nonlinear regression analysis using GraphPad Prism software. […]
pIC50: −log10 of the molar value.
endpoint: pIC50

# molecule, result
records = [
    ("N#C[C@H]1CN(C(=O)[C@@H]2CC[C@@H]3CN(C4CCC4)CC[C@H](NC(=O)c4ccc5ccc(C(F)(F)P(=O)(O)O)cc5c4)C(=O)N32)C[C@@H]1c1ccccc1 (relative stereo) [Compound 228]", "≥ 6.52"),
    ("CC(=O)N1CC[C@H]2CC[C@@H](C(=O)N3C[C@@H](C#N)C[C@H](c4ccccc4)C3)N2C(=O)[C@@H](NC(=O)c2cc3cc(C(F)(F)P(=O)(O)O)ccc3s2)C1 (relative stereo) [Compound 153]", "5.52 to 6.52"),
    ("Cc1ccc2onc(C(=O)N3CC[C@H]4CC[C@@H](C(=O)N5C[C@@H](C)O[C@@H](C)C5)N4C(=O)[C@@H](NC(=O)c4ccc5ccc(C(F)P(=O)(O)O)cc5c4)C3)c2c1 (stereo partly shown) [Compound 397]", "≥ 6.52"),
    ("CC(=O)N1CC[C@H]2CC[C@@H](C(=O)N3CC(c4ccn(C)c(=O)c4)CC34CC4)N2C(=O)[C@@H](NC(=O)c2ccc3ccc(C(F)P(=O)(O)O)cc3c2)C1 (stereo partly shown) [Compound 354]", "≥ 6.52"),
    ("CCC(=O)NCCCN(C)C(=O)[C@@H]1CC[C@@H]2CCN(C(C)=O)C[C@H](NC(=O)/C=C/c3ccc(C(F)(F)P(=O)(O)O)cc3)C(=O)N21 [Compound 26]", "< 4.52"),
    ("CC(=O)N1CC[C@H]2CC[C@@H](C(=O)N3CC(c4ccc(=O)[nH]c4)[C@@H](C#N)C3)N2C(=O)[C@@H](NC(=O)c2cc3cc(C(F)(F)P(=O)(O)O)ccc3s2)C1 (relative stereo) [Compound 146]", "5.52 to 6.52"),
    ("CC(=O)N1CC[C@H]2CC[C@@H](C(=O)N(C)c3ccc4oncc4c3)N2C(=O)[C@@H](NC(=O)c2cc3cc(C(F)(F)P(=O)(O)O)ccc3s2)C1 [Compound 49]", "4.52 to 5.52"),
    ("CC(=O)N1CC[C@H]2CC[C@@H](C(=O)N(C)CC(C)(C)C#N)N2C(=O)[C@@H](NC(=O)c2cc3cc(C(F)(F)P(=O)(O)O)ccc3s2)C1 [Compound 92]", "5.52 to 6.52"),
    ("CC(=O)N1CC[C@H]2CC[C@@H](C(=O)N3CCC(Oc4ccncc4)C3)N2C(=O)[C@@H](NC(=O)c2cc3cc(C(F)(F)P(=O)(O)O)ccc3s2)C1 (stereo partly shown) [Compound 95]", "5.52 to 6.52"),
    ("CC(=O)N1CC[C@H]2CC[C@@H](C(=O)N(C)c3ccc(C(C)(C)C)cc3)N2C(=O)[C@@H](NC(=O)c2ccc3ccc(C(F)(F)P(=O)(O)O)cc3c2)C1 [Compound 117]", "5.52 to 6.52"),
]

From: patent US20250179103A1
